The reported measurements were obtained from PubChem BioAssay (NCI).

System: NCI-H522 lung
Test description: NCI tumour cell line growth inhibition, 48 h
Measured metric: TGI

INPUT: Any idea what TGI was measured for `COc1cccc(NC(=O)CC(=O)n2nc(-c3ccccc3)c(N=Nc3ccc(Cl)cc3)c2-c2ccccc2)c1` ?
OUTPUT: 59.8 µM

INPUT: And the next one, CC(OP(=O)(O)O)C(N)C(=O)O (configuration not stated) ?
OUTPUT: > 100 µM

INPUT: And the next one, CC(C)C1(NC(=O)C2CC3c4cccc5[nH]cc(c45)CC3N(C)C2)OC2(O)C3CCCN3C(=O)C(Cc3ccccc3)N2C1=O (configuration not stated) ?
OUTPUT: > 100 µM

INPUT: And the next one, `Cc1cc(=O)[nH]c(N/N=C/c2ccccc2O)n1` ?
OUTPUT: > 100 µM

INPUT: And the next one, `Cc1nn(C)c2ncnc(N/N=C/c3cccc(O)c3O)c12` ?
OUTPUT: > 48.2 µM

INPUT: And the next one, CC(C)OP(=O)(OC(C)C)C(C(C)C)N(C)C(N)=NC#N (configuration not stated) ?
OUTPUT: > 100 µM

INPUT: And the next one, `COc1cc(C)cc(C(=O)/C=C/c2ccccc2)c1O` ?
OUTPUT: 50.8 µM

INPUT: And the next one, `C=CC(C)(C)/C=C/c1ccc(O)cc1` ?
OUTPUT: > 100 µM

INPUT: And the next one, `C1CSC[C@H]2COC[C@@H](CSCCS1)S2` ?
OUTPUT: > 100 µM

INPUT: And the next one, `O=C(O)COc1ccc(OCC(=O)O)cc1` ?
OUTPUT: 3.22 µM

INPUT: And the next one, `CC(CCc1nc2ccccc2s1)(c1ccc(O)cc1)c1ccc(O)cc1` ?
OUTPUT: 32 µM

INPUT: And the next one, `COc1cc(F)c(F)cc1C(=O)c1cnc(NC2CCN(S(C)(=O)=O)CC2)nc1N` ?
OUTPUT: > 25 µM

INPUT: And the next one, `CN1CCN=C1c1nnn(-c2ccc([N+](=O)[O-])cc2)c1-c1ccccc1` ?
OUTPUT: > 100 µM

INPUT: And the next one, CN1CCC(c2c(O)cc(O)c3c(=O)cc(-c4ccccc4Cl)oc23)C(O)C1 (configuration not stated) ?
OUTPUT: 0.448 µM

INPUT: And the next one, O=C1CC(C2(O)C(=O)Nc3ccc([N+](=O)[O-])cc32)c2ccccc21 (configuration not stated) ?
OUTPUT: 26.3 µM

INPUT: And the next one, CS(=O)(=O)c1ccc(COP(N)(=O)N(CCCl)CCCl)cc1 (configuration not stated) ?
OUTPUT: > 100 µM

INPUT: And the next one, `CCCCNS(=O)(=O)c1ccc(-c2ccc3c(c2)-c2ccc(S(=O)(=O)NCCCC)cc2S3(=O)=O)cc1` ?
OUTPUT: 66.2 µM

INPUT: And the next one, `CCCCCCC(=O)C/C(CCC(=O)N(Cc1ccccc1)Cc1ccccc1)=N\NC(N)=O` ?
OUTPUT: > 100 µM

INPUT: And the next one, `CSc1nnc(SCc2nn3c(=O)cc(C)nc3s2)s1` ?
OUTPUT: > 100 µM

INPUT: And the next one, `O=c1cc[nH]cc1-c1c[nH]ccc1=O` ?
OUTPUT: > 100 µM

INPUT: And the next one, CC(=O)OCC1OC(n2c(=O)[nH]c(=O)c3n[nH]nc32)C(OC(C)=O)C(OC(C)=O)C1OC(C)=O (configuration not stated) ?
OUTPUT: > 100 µM

INPUT: And the next one, `O=Nc1c(-c2c(O)[nH]c3ccc(I)cc23)[nH]c2ccccc12` ?
OUTPUT: > 26.1 µM

---

Exercise: for every item that follows, state its recorded GI50.
System: SF-268 CNS
Test description: NCI tumour cell line growth inhibition, 48 h

INPUT: Any idea what GI50 was measured for `O=C(O)Cn1c2c(c3c1-c1ccccc1C3=O)C(=O)CCC2` ?
OUTPUT: > 100 µM

INPUT: And the next one, `Cc1nn(C)c2ncnc(N/N=C/c3cccc(O)c3O)c12` ?
OUTPUT: 0.342 µM

INPUT: And the next one, `CCOC(=O)c1c(-c2ccccc2)[n+](=O)c2cc(F)c(F)cc2n1[O-]` ?
OUTPUT: 1.66 µM

INPUT: And the next one, CC1CCCC(C#N)(NOC2=NCCN2)C1 (stereo unspecified) ?
OUTPUT: 60.3 µM

INPUT: And the next one, `Cc1nc(NS(=O)(=O)c2ccc(NCN3C(=O)c4ccccc4C3=O)cc2)oc1C` ?
OUTPUT: > 100 µM

INPUT: And the next one, `COc1cc(Cc2c(C)cc(OC)c3[nH]c4ccccc4c23)cc2c1[nH]c1ccccc12` ?
OUTPUT: 6.97 µM

INPUT: And the next one, `CCN(CC)CCCNCc1cc(-c2ccccc2)nc2cc(Cl)ccc12` ?
OUTPUT: 3.05 µM

INPUT: And the next one, `COC1=C(OC)C(=O)C(C/C=C(\C)CC/C=C(\C)CC/C=C(\C)CC/C=C(\C)CC/C=C(\C)CC/C=C(\C)CC/C=C(\C)CC/C=C(\C)CC/C=C(\C)CCC=C(C)C)=C(C)C1=O` ?
OUTPUT: > 100 µM

INPUT: And the next one, `CN(C)CCN1C(=O)c2cccc3c(/C=C/CN4C(=O)c5cccc6cccc(c56)C4=O)ccc(c23)C1=O` ?
OUTPUT: 51.5 µM

INPUT: And the next one, `CCN1CCN(c2cc(C(=O)Nc3cccc(Nc4ccc5c(OC)cccc5n4)c3)cc(C(F)(F)F)c2)CC1` ?
OUTPUT: 1.76 µM

INPUT: And the next one, COc1ccc(C2NN=C3c4ccccc4CCC32)cc1 (stereo unspecified) ?
OUTPUT: 15.7 µM

---

Test system: MCF7 breast
Test description: NCI tumour cell line growth inhibition, 48 h
Exercise: for every item that follows, state its recorded TGI.

INPUT: Any idea what TGI was measured for `COc1c(OC)c(OC)c2c(=O)cc(-c3ccc(OC(C)C)cc3)oc2c1OC` ?
OUTPUT: 35.8 µM

INPUT: And the next one, `C=C(C)[C@@H]1CCc2c(O)c(O)c(=O)cc(C)c2C1` ?
OUTPUT: 20.7 µM

INPUT: And the next one, `Cc1c(Nc2nccc3cc(CN4CC[C@@H](O)C4)cnc23)cccc1-c1cccc(-c2nc3cc(CN4CC[C@@H](C(=O)O)C4)cc(C#N)c3o2)c1C` ?
OUTPUT: 4.26 µM

INPUT: And the next one, C=C(CN(CC)CC)C1(c2ccccc2)CC2(CCCC2)C(=O)O1 (configuration not stated) ?
OUTPUT: > 100 µM

INPUT: And the next one, `Oc1cccc2c(Br)ccnc12` ?
OUTPUT: > 31.6 µM

INPUT: And the next one, `OCCCCC#Cc1ccccc1C#Cc1cccnc1` ?
OUTPUT: > 100 µM

INPUT: And the next one, `Cc1cc(=O)[nH]c(N/N=C/c2ccccc2O)n1` ?
OUTPUT: > 100 µM

INPUT: And the next one, `CCC[CH2][Sn]([CH2]CCC)([CH2]CCC)/[C](=C/[Si](C)(C)c1ccccc1)c1ccc2c(c1)OCO2` ?
OUTPUT: 53.7 µM

INPUT: And the next one, O=S(=O)(/N=S(/Nc1ccccc1)C(F)(F)Cl)c1ccccc1 (configuration not stated) ?
OUTPUT: > 100 µM

INPUT: And the next one, `O=c1[nH]c2ccccc2c(O)c1/C=N/C(=S)NC1CCCCC1` ?
OUTPUT: > 100 µM

INPUT: And the next one, CC(C)C1(NC(=O)C2CC3c4cccc5[nH]cc(c45)CC3N(C)C2)OC2(O)C3CCCN3C(=O)C(Cc3ccccc3)N2C1=O (configuration not stated) ?
OUTPUT: > 100 µM

INPUT: And the next one, Cc1ccc(N2C(=O)C3CSCN3C2=O)cc1 (configuration not stated) ?
OUTPUT: > 100 µM

---

System: MDA-N
Test description: NCI tumour cell line growth inhibition, 48 h
Exercise: for every item that follows, state its recorded TGI.

INPUT: Any idea what TGI was measured for COc1cc(S(=O)(=O)Nc2ccc(-c3csc(N4C(=O)C(Cl)C4c4ccccc4O)n3)cc2)ccc1Cl (centres undefined) ?
OUTPUT: > 100 µM

INPUT: And the next one, `Cn1c2ccccc2n2c3ncccc3c(=O)cc12` ?
OUTPUT: > 100 µM

INPUT: And the next one, `C/C(=N\Nc1nc2ccccc2[nH]1)c1ncccn1` ?
OUTPUT: > 100 µM

INPUT: And the next one, `Cc1nc2ccc(Cl)cc2c2c1CCO2` ?
OUTPUT: > 100 µM

INPUT: And the next one, `C=C(C)[C@@H]1CCc2c(O)c(O)c(=O)cc(C)c2C1` ?
OUTPUT: > 100 µM

INPUT: And the next one, `CCC[CH2][Sn]([CH2]CCC)([CH2]CCC)/[C](=C/[Si](C)(C)c1ccccc1)c1ccc2c(c1)OCO2` ?
OUTPUT: 40.3 µM

INPUT: And the next one, CC(C)[C@H](C)/C=C/[C@@H](C)C1CC[C@H]2[C@@]34C=C[C@]5(C[C@@H](O)CC[C@]5(C)[C@H]3CC[C@]12C)OO4 (some centres undefined) ?
OUTPUT: > 100 µM

INPUT: And the next one, CC(c1ccccc1)n1cncc1C(=O)NN1CCN(C)CC1 (centres undefined) ?
OUTPUT: > 10 µM

INPUT: And the next one, `Cc1nc(C)c(N2CCN(CN)CC2)c(=O)[nH]1` ?
OUTPUT: > 100 µM

INPUT: And the next one, `C=C(Br)C[N+]12CN3CN(CN(C3)C1)C2` ?
OUTPUT: > 100 µM

INPUT: And the next one, CCOC(=O)C1CCC(=O)N1C(=O)c1cccc(Cl)c1 (centres undefined) ?
OUTPUT: > 100 µM

INPUT: And the next one, `Oc1cccc2c(Br)ccnc12` ?
OUTPUT: > 50.4 µM

INPUT: And the next one, `O=C1CCCCC/C1=C\c1cccc(F)c1` ?
OUTPUT: > 100 µM

INPUT: And the next one, `[N-]=[N+]=Nc1nc2ccccc2c(N=[N+]=[N-])c1Cl` ?
OUTPUT: > 100 µM

INPUT: And the next one, `CCOC(=O)CCc1cn2cc(Br)nc(OC)c2n1` ?
OUTPUT: 12.6 µM

INPUT: And the next one, O=[N+]([O-])c1ccc(N2N=C(c3c(O)ccc4ccccc34)CC2c2ccc(Cl)cc2)c([N+](=O)[O-])c1 (centres undefined) ?
OUTPUT: > 100 µM

INPUT: And the next one, COC(=O)c1c2c(cc3c1CC1(Cc4cc5c(c(C)c4C1)CCC5)C3)CCC2 (centres undefined) ?
OUTPUT: > 100 µM

INPUT: And the next one, `Cc1cc(C)c2c(c1)C/C(=C\c1cccc(C)c1C(=O)O)C2=O` ?
OUTPUT: > 100 µM

INPUT: And the next one, `COc1ccc(OC)c2c(C)ccnc12` ?
OUTPUT: > 100 µM

INPUT: And the next one, `O=C1C=C(N2CCN(c3ncccn3)CC2)C(=O)c2c(O)ccc(O)c21` ?
OUTPUT: 31.3 µM

INPUT: And the next one, `CC(=O)CC(=O)N1CCSC1=S` ?
OUTPUT: > 10 µM

INPUT: And the next one, O=CC(O)C(O)C(O)C(O)COC(=O)NCCCCC(=O)C(F)(F)C(F)(F)C(F)(F)C(F)(F)C(F)(F)C(F)(F)C(F)(F)F (centres undefined) ?
OUTPUT: 73.5 µM

INPUT: And the next one, `CCCC1=C(OC)C(=O)c2c(C)cc(Cl)nc2C1=O` ?
OUTPUT: 3.33 µM

INPUT: And the next one, `CCCCCCCCCCCNC=O` ?
OUTPUT: > 100 µM

INPUT: And the next one, C=C(CN(CC)CC)C1(c2ccccc2)CC2(CCCC2)C(=O)O1 (centres undefined) ?
OUTPUT: > 100 µM

INPUT: And the next one, `O=C1C=CC(=O)c2c1ccc1c3ccccc3n(Cc3ccccc3)c21` ?
OUTPUT: 54.4 µM

INPUT: And the next one, `c1ccc2c[n+](CCCC[n+]3ccc4ccccc4c3)ccc2c1` ?
OUTPUT: > 100 µM

INPUT: And the next one, COc1cccc2c1OC1c3ccccc3OCC1(O)C2 (centres undefined) ?
OUTPUT: > 100 µM

INPUT: And the next one, O=S(=O)(/N=S(/Nc1ccccc1)C(F)(F)Cl)c1ccccc1 (centres undefined) ?
OUTPUT: > 100 µM
